study.target: RRM tandem F58A (human, UniProt Q07955 1-196, F58A)
Sequence (Q07955 1-196 F58A): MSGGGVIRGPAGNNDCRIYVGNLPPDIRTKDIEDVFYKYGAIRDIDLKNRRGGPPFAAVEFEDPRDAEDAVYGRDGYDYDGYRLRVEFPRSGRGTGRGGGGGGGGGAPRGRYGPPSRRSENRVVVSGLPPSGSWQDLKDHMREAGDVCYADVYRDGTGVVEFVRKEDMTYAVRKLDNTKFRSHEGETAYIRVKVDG
procedure.text: FP; FP, 10 nM RNA, 37 C 30 min then 25 C 10 min; 21-mers: 25 mM KCl, 0.25 M Arg/Glu, 20 mM Tris-HCl pH 7.5, 0.1 mM EDTA, 0.1 mM TCEP, 0.02% Tween 20; 8-mers: 35 mM
test.parameters: protein: recombinant; tags: SUMO; label: 5' fluorescein; G-quadruplex (parallel)
measured.quantity: Kd (nM)
Numeric answer only, unit nM assumed.

Recorded result, GGGGGCUGGGCGGGGACCGGG (structured_RNA) [ARPC2 GQ] , Kd: 1500

Reference for the values: paper PMC11077049
